Molecular target: IDH1 R132H (Homo sapiens, UniProt O75874, R132H)
Sequence (O75874 whole entry R132H): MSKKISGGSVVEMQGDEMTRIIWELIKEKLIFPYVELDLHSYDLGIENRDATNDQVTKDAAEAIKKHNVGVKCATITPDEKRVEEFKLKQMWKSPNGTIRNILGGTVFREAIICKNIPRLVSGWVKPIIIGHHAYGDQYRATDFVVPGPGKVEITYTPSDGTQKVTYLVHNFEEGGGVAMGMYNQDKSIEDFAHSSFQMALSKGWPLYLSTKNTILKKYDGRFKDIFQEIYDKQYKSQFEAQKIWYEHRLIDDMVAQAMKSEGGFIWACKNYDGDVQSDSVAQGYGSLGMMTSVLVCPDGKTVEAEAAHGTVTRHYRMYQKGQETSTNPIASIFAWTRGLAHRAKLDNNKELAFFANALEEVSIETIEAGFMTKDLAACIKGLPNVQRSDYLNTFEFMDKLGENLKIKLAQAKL
Experiment: In vitro assay for IDH1 R132H inhibitors (NADPH/aKG, resazurin detection)
Assay type: biochemical
Conditions: Table 4B; 0.2 μg/ml IDH1 R132H, 50 minutes at room temperature; read-out: IC50, IDH1 R132H Inhibition
Protocol: Assays were conducted in a volume of 76 μl assay buffer (150 mM NaCl, 10 mM MgCl2, 20 mM Tris pH 7.5, 0.03% bovine serum albumin) as follows in a standard 384-well plate: To 25 ul of substrate mix (8 uM NADPH, 2 mM aKG), 1 μl of test compound was added in DMSO. […] The conversion of resazurin to resorufin was detected by fluorescent spectroscopy at Ex544 Em590 c/o 590. […]
pIC50: −log10 of the molar value.
// reported pIC50 per item

{"compound": "Cc1ccccc1[C@@H](C(=O)NC1CCCCC1)N(C(=O)[C@H]1CCCCN1C(=O)OC(C)C)c1cccc(F)c1 [Compound 338]", "result": "6.00 to 7.00"}
{"compound": "Cc1ccccc1C(C(=O)NC1CCCCC1)N(C(=O)Cn1ccc2ncccc21)c1cccc(F)c1 (stereo not shown) [Compound 252]", "result": "6.00 to 7.00"}
{"compound": "COC(=O)NCC(=O)N(c1ccccc1F)C(C(=O)NC1CCCCC1)c1ccccc1C (stereo not shown) [Compound 357]", "result": "6.00 to 7.00"}
{"compound": "CC(=O)Nc1cccc(N(C(=O)Cn2ccnc2C)C(C(=O)NC2CCCCC2)c2ccccc2C)c1 (stereo not shown) [Compound 236]", "result": "6.00 to 7.00"}
{"compound": "Cc1ccccc1C(C(=O)NC1CCCCC1)N(C(=O)COc1cccc(F)c1)c1cccc(F)c1 (stereo not shown) [Compound 189]", "result": "6.00 to 7.00"}
{"compound": "O=C(NC1CCCCC1)C(c1ccccc1Cl)N(C(=O)Cn1cnc(Cl)c1Cl)c1cccc(F)c1 (stereo not shown) [Compound 383]", "result": "≥ 7.00"}
{"compound": "Cc1ccccc1C(C(=O)NC1CCCCC1)N(C(=O)COc1ccc(F)cc1)c1cccc(F)c1 (stereo not shown) [Compound 194]", "result": "6.00 to 7.00"}
{"compound": "Cc1ccccc1C(C(=O)NC1CCCCC1)N(C(=O)Cn1nnc2ccccc21)c1cccc(F)c1 (stereo not shown) [Compound 151]", "result": "6.00 to 7.00"}

IN: So what pIC50 did Cc1ccccc1C(C(=O)NC1CCOCC1)N(C(=O)Cc1cccs1)c1cccc(F)c1 (stereo not shown) [Compound 159] get with IDH1 R132H (Homo sapiens, UniProt O75874, R132H)?
OUT: 6.00 to 7.00

IN: So what pIC50 did Cc1ccccc1C(C(=O)NC1CCCCC1)N(C(=O)CNc1cc(F)ccn1)c1cccc(F)c1 (stereo not shown) [Compound 287] get with IDH1 R132H (Homo sapiens, UniProt O75874, R132H)?
OUT: ≥ 7.00

IN: So what pIC50 did Cc1ccccc1C(C(=O)NC1CCCCC1)N(C(=O)COc1ccccc1F)c1cccc(F)c1 (stereo not shown) [Compound 196] get with IDH1 R132H (Homo sapiens, UniProt O75874, R132H)?
OUT: 6.00 to 7.00

IN: So what pIC50 did Cc1ccccc1C(C(=O)NC1CCCCC1)N(C(=O)CN1CCC(F)(F)CC1)c1cccc(F)c1 (stereo not shown) [Compound 177] get with IDH1 R132H (Homo sapiens, UniProt O75874, R132H)?
OUT: 6.00 to 7.00

IN: So what pIC50 did CCOC(=O)N1CCN(CC(=O)N(c2cccc(F)c2)C(C(=O)NC2CCCCC2)c2ccccc2C)CC1 (stereo not shown) [Compound 249] get with IDH1 R132H (Homo sapiens, UniProt O75874, R132H)?
OUT: 6.00 to 7.00

IN: So what pIC50 did COC(=O)N1CCCCC1C(=O)N(c1cccc(F)c1)C(C(=O)NC1CCCCC1)c1ccccc1C (stereo not shown) [Compound 293] get with IDH1 R132H (Homo sapiens, UniProt O75874, R132H)?
OUT: ≥ 7.00
